TEST SUMMARY: The drug is tested on Bacteroides pectinophilus strain: ATCC43243 for biotransformation. The drug concentrations were measured before and after a 12-h incubation by liquid-chromatography-coupled mass spectrometry (LC–MS)
RUN PARAMETERS: 2 µM
READOUT NAME: Bacterial Biotransformation

COMPOUND: Cc1ccc(S(=O)(=O)NC(=O)NN2CCCCCC2)cc1 [TOLAZAMIDE]
READOUT NAME: Bacterial Biotransformation
RESULT: Compound metabolized
//
COMPOUND: CC(=O)OCC(=O)[C@@]1(OC(C)=O)[C@@H](C)C[C@H]2[C@@H]3C[C@H](F)C4=CC(=O)C=C[C@]4(C)[C@@]3(F)[C@@H](O)C[C@@]21C [DIFLORASONE DIACETATE]
READOUT NAME: Bacterial Biotransformation
RESULT: Compound NOT metabolized
//
COMPOUND: CC(C)[C@H]1CC[C@H](C(=O)N[C@H](Cc2ccccc2)C(=O)O)CC1 [NATEGLINIDE]
READOUT NAME: Bacterial Biotransformation
RESULT: Compound NOT metabolized
//
COMPOUND: CC(=O)OCC(=O)NCCCOc1cccc(CN2CCCCC2)c1 [ROXATIDINE ACETATE]
READOUT NAME: Bacterial Biotransformation
RESULT: Compound metabolized
//
COMPOUND: CCOc1ccc(NC(C)=O)cc1
READOUT NAME: Bacterial Biotransformation
RESULT: Compound NOT metabolized
//
COMPOUND: NC(=O)N1c2ccccc2CC(=O)c2ccccc21 [OXCARBAZEPINE]
READOUT NAME: Bacterial Biotransformation
RESULT: Compound metabolized

Fill in: Bacterial Biotransformation of CNC(=C[N+](=O)[O-])NCCSCc1ccc(CN(C)C)o1 is ___
Compound metabolized

What Bacterial Biotransformation value was documented for this compound, O=C1[C@H](CC[C@H](O)c2ccc(F)cc2)[C@@H](c2ccc(O)cc2)N1c1ccc(F)cc1 ?
Compound NOT metabolized

Just for reference, ChEMBL document CHEMBL5303573 is where these values come from.
